Measurement Target: Muscarinic acetylcholine receptor M1 (Homo sapiens)
Sequence (P11229 whole entry): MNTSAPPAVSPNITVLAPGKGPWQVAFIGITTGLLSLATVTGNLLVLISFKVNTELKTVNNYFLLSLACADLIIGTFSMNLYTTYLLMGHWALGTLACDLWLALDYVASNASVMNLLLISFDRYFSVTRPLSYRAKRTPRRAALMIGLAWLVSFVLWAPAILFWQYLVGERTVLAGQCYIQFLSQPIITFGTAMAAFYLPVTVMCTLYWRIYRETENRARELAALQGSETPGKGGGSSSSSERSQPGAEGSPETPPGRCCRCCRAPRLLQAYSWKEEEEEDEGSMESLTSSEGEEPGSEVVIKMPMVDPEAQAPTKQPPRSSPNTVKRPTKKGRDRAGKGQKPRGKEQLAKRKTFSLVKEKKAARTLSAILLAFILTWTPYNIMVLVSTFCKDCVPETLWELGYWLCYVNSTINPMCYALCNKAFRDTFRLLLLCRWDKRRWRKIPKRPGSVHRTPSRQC
Test Name: Compound was tested for its binding affinity against M1 human recombinant muscarinic receptor in CHO cells.
Assay type: cell-based
Property: IC50

Record `Cc1cc(/C=C2\CN3CCC2CC3)on1` , field IC50: ~10 µM
